The values you see were collected from patent US20260248972A1.

assay.details: in vivo
condition.set: BALB/c nude, mouse, in vivo, iv, total radioactivity, % ID/g Spleen
In this section we review reported tissue uptake at 72 h values for a set of compounds.
Numeric answer only, unit %ID/g assumed.

C[C@@H](O)[C@H](NC(=O)[C@@H]1CSSC[C@H](NC(=O)[C@@H](Cc2ccccc2)NC(=O)COCCOCCNC(=O)COCCOCCNC(=O)[C@H](CCCCNC(=O)c2cccc(NC(=O)N[C@@H]3CN(C4CCCCC4)c4ccccc4N(CC(=O)C(C)(C)C)C3=O)c2)NC(=O)CN2CCN(CC(=O)O)CCN(CC(=O)O)CCN(CC(=O)O)CC2)C(=O)N[C@@H](Cc2ccc(O)cc2)C(=O)N[C@H](Cc2c[nH]c3ccccc23)C(=O)N[C@@H](CCCCN)C(=O)N[C@@H]([C@@H](C)O)C(=O)N1)C(=O)O [Compound 177Lu-I-39, metal not drawn] = 0.07

Please examine the following record next.
Query: tissue uptake at 72 h; subject: C[C@@H](O)[C@H](NC(=O)[C@@H]1CSSC[C@H](NC(=O)[C@@H](Cc2ccccc2)NC(=O)CN2CCN(CC(=O)O)CCN(CC(=O)O)CCN(CC(=O)O)CC2)C(=O)N[C@@H](Cc2ccc(O)cc2)C(=O)N[C@H](Cc2c[nH]c3ccccc23)C(=O)N[C@@H](CCCCN)C(=O)N[C@@H]([C@@H](C)O)C(=O)N1)C(=O)O [^177Lu-C-1, metal not drawn, reference compound]
0.05
